Target: hCMV UL130 + UL131A (HEK293T co-transfectant) (hCMV, UniProt P16772 1-214)
Sequence (P16772 whole entry): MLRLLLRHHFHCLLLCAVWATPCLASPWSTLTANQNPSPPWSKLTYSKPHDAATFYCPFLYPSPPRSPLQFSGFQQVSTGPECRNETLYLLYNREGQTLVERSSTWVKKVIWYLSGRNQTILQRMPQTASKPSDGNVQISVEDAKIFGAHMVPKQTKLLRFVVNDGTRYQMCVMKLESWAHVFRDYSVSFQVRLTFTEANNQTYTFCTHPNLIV
Assay: cell-based or functional assay
property name: 50% neutralization VR1814, ARPE

# binder, test result
records = [
    ("4I22 (antibody, human IgG1, V domains shown, fully human IgG1 with unaltered Fc; also called 4I22-biotin; 4122) VH: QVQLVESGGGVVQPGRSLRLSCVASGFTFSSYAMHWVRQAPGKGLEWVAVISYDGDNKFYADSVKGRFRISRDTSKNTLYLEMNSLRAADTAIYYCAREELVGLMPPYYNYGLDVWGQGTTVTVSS VL: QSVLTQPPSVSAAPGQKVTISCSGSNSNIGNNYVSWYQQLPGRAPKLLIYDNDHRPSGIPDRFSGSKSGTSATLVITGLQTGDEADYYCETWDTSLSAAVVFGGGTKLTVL", "< 0.01 µg/mL"),
    ("10P3 (antibody, V domains shown, human IgG) VH: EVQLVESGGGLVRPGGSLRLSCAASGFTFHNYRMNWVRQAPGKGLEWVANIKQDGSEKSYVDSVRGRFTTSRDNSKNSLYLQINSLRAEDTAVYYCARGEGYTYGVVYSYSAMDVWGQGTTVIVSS VL: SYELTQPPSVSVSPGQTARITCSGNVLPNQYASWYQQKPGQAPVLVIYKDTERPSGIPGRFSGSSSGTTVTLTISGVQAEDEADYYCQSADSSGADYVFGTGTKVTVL", "< 0.001 µg/mL"),
    ("8L13 (antibody, V domains shown, human IgG) VH: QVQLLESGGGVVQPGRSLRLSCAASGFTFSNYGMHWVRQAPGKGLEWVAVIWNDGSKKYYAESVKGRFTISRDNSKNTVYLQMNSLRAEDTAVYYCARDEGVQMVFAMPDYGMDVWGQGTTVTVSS VL: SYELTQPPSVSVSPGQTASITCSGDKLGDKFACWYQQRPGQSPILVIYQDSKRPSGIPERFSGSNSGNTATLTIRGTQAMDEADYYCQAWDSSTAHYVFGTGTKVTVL", "< 0.01 µg/mL"),
    ("4N10 (antibody, V domains shown, human IgG; also called 4N10-biotin) VH: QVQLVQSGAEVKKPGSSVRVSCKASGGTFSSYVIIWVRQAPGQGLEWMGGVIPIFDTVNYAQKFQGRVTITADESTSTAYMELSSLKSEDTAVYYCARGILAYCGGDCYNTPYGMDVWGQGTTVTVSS VL: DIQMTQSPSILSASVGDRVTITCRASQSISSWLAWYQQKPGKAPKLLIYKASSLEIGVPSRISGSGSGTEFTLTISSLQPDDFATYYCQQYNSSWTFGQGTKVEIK", "< 0.001 µg/mL"),
    ("10F7 (antibody, V domains shown, human IgG; also called 10F7-biotin) VH: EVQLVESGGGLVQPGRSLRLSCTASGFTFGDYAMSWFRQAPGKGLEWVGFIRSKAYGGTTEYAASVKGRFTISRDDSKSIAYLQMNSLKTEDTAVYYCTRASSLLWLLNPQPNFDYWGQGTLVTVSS VL: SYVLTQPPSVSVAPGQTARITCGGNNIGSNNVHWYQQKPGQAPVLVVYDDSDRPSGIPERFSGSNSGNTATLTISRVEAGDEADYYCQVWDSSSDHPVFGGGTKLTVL", "< 0.01 µg/mL"),
]
